- System: BDF1 mice, B16 melanoma ip, median survival T/C
- TEST: NCI In Vivo Anticancer Drug Screen. Data for tumor model B16 Melanoma (intraperitoneal) in B6D2F1 (BDF1) mice
- CONDITION_CONTEXT: endpoint: median survival time; dose: 1.25 mg/kg/injection; schedule: Q01DX009 (ip); vehicle: saline
Inconclusive results and toxic doses are left out. The calls were made as follows: active = survival T/C of 150% or more; inactive = T/C below 125% in these data.
Outcomes: label 1 = active, label 0 = inactive

COMPOUND	QUALITATIVE_LABEL
c1cc[c]([Sn][c]2ccccc2)cc1	label 0
CC1CN1CC(O)C(O)CN1CC1C (stereo unspecified)	label 0
CCN(C)c1cc2c3c(c1)CCCN3CCC2	label 0
O=NN(CCCl)C(=O)NC1[C@H](O)CCC[C@@H]1O (stereo partly specified)	label 1
CC(CC1c2ccccc2CCc2ccccc21)CN(C)C (stereo unspecified)	label 0
Cc1ccc2c(C)c3c(ccc4ccccc43)c[n+]2c1	label 0
